Entries and their measured protein stability index follow.
B1: ZNF649 (parent)
chain: MTKAQESLTLEDVAVDFTWEEWQF

- Variants of: B1
- measurementNotes: protein stability index of a GFP-peptide fusion (GPS, HEK-293T) (PSI 1-6); higher = more stable;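 also: lentivirally expressed fusions sorted by FACS into six bins by GFP to DsRed ratio, PSI derived from sequencing read proportions per bin multiplied by bin number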
- experimentalSetup: c terminus: a fixed tail appended
Keep the answer to the number alone.

>  <variantDescriptor>
F24M

>  <readoutKind>
protein stability index

>  <numericReadout>
4.49

$$$$
>  <variantDescriptor>
L8V

>  <readoutKind>
protein stability index

>  <numericReadout>
3.59

$$$$
>  <variantDescriptor>
A4R

>  <readoutKind>
protein stability index

>  <numericReadout>
2.97

$$$$

Lab book: protein stability index of T9N noted as 4.28

Lab book: protein stability index of S7W noted as 1.72

Lab book: protein stability index of D12Y noted as 4.33

Lab book: protein stability index of E11G noted as 2.98

Lab book: protein stability index of E6H noted as 2.2
